Consider the following compounds; for each one, report its IC50.
Biological target: Tyrosine-protein phosphatase non-receptor type 11 (Homo sapiens)
Sequence (Q06124 whole entry): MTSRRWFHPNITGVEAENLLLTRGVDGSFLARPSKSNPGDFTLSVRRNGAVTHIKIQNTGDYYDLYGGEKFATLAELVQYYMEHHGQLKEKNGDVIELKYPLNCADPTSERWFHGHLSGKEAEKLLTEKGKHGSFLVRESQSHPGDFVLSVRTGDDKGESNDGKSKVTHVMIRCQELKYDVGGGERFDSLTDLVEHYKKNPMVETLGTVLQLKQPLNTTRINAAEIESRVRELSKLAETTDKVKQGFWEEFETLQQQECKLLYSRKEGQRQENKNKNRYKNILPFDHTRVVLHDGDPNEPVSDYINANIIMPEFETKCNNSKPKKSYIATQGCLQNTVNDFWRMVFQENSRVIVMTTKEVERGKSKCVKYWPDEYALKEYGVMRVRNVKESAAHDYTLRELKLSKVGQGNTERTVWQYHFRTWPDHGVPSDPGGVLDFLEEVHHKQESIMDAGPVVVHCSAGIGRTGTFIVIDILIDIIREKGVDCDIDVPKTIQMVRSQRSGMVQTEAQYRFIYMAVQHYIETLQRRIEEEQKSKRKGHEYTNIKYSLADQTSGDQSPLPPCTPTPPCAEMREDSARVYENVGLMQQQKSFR
Assay: Biochemical Assay: The inhibition of SHP2 by compounds of the invention was monitored using the surrogate substrate DiFMUP after protein activation by a peptide bearing two appropriately spaced phosphotyrosine. Full length SHP2 protein (Recombinant HumanSHP-2, E. coli derived Ser2Arg593, N-terminal 6His tag from R&D systems; […]) was incubated with activating peptide, IRSI_2pY (New England …
One number for each entry, in nM.

Cc1nc(N2CCC3(CCCC3CN)CC2)cc(=O)n1-c1cccc(Cl)c1Cl (configuration not stated)	2100

// IC50 lookup, key: `Cc1nc(N2CCC(C)(CN)CC2)cc(=O)n1-c1cccc(C(F)(F)F)c1Cl`
1500
